biological target: hERG (KCNH2) (Homo sapiens); experiment: Inhibition of human ERG at 1 uM by whole cell based electrophysiology assay
Sequence (Q12809 whole entry): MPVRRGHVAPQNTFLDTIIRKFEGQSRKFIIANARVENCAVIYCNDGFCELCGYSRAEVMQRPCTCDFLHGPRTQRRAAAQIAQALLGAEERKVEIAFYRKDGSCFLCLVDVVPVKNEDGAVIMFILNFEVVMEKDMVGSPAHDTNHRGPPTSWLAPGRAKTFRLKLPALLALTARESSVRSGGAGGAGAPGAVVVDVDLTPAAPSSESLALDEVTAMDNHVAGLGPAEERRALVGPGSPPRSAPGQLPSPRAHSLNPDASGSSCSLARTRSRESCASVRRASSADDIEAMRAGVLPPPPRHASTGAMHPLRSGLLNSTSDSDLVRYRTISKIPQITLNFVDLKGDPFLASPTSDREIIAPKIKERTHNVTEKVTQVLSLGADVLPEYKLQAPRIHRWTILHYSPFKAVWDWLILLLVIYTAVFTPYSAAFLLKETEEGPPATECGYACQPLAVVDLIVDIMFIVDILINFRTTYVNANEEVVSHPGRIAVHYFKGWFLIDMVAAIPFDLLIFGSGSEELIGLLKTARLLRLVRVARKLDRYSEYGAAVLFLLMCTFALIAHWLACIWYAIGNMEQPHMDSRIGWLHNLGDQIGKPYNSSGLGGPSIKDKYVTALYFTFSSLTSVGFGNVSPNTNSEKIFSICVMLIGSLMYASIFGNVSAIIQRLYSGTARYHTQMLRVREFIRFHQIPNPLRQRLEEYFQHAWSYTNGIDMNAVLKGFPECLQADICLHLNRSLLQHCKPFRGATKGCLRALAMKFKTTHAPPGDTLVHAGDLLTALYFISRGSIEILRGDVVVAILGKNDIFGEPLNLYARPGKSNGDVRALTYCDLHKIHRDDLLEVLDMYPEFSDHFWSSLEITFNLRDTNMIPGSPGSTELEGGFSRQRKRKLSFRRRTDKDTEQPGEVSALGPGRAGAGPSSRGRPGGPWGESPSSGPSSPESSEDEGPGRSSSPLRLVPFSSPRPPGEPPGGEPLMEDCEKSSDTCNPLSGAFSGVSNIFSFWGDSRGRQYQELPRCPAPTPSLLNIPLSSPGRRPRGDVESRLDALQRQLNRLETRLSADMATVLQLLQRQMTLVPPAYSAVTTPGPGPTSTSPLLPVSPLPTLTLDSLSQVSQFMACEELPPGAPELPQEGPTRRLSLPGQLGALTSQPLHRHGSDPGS
readout.kind: inhibition at 1 µM
Mention the unit after the number when you answer.

Asked: Which measured inhibition at 1 µM value corresponds to O=C(NCCCCN1CCN(c2ccccc2)CC1)c1ccc2ncccc2c1 ?
Given back: 10%

###

organism: Mus musculus; conditions: in vivo, sc, 0.5 h
Description: Effect on spontaneous exploratory locomotor activity in sc dosed NMRI mouse measured for 30 mins with activity counts each 5 mins
Examples of compounds with documented MED follow.
Supply the numeric figure in mg/kg, leaving out any unit text.

Asked: What value of MED has been reported for the following compound? COc1cccc(N2CCN(CCCCNC(=O)c3ccccc3)CC2)n1
Given back: 10

Asked: # MED lookup, item O=C(NCCCCN1CCN(c2ccccc2)CC1)c1ccccn1
Given back: 3

Asked: Record request: MED value, item COc1cccc(N2CCN(CCCCNC(=O)c3cc4ccccc4cn3)CC2)c1
Given back: 10

Asked: Returns the measured MED for the input compound. Input: Cc1cccc(N2CCN(CCCCNC(=O)c3ccc4ccccc4n3)CC2)c1
Given back: 10

Please turn your attention to the following entry.
Asked: Request the reported MED associated with O=C(NCCCCN1CCN(c2ccccc2)CC1)c1cc2ccccc2cn1
Given back: 10

###

Recorded Ki values (UniProt P28335) are given below.
A number alone suffices; assume µM.

Asked: Item: O=C(NCCCCN1CCN(c2cccc3ccccc23)CC1)c1ccccc1 Test system: UniProt P28335 Read-out: Ki Value: ?
Given back: 0.006

Asked: Entry Cc1cccc(N2CCN(CCCCNC(=O)c3cc4ccccc4o3)CC2)n1 , system UniProt P28335: what Ki was measured?
Given back: 0.061

Asked: Lookup: Ki / UniProt P28335 / Cc1cccc(N2CCN(CCCCNC(=O)c3cc4ccccc4o3)CC2)c1C
Given back: 0.017

Asked: Hello, I am looking for reported Ki with UniProt P28335 for O=C(NCCCCN1CCN(c2ccc(O)cc2)CC1)c1cc2ccccc2cn1 . Could you help?
Given back: 0.4

---
Asked: Requested read-out Ki, target or system UniProt P28335, entry COc1cccc(N2CCN(CCCCNC(=O)c3cc4ccccc4o3)CC2)c1
Given back: 0.173

Asked: Provide the documented Ki with UniProt P28335 as the system for Cc1cccc(N2CCN(CCCCNC(=O)[C@H]3CCc4ccccc4N3)CC2)c1
Given back: 0.45

Asked: Record lookup: for UniProt P28335, what Ki belongs to O=C(NCCCCN1CCN(c2ccccc2)CC1)c1ccc2ccccc2n1 ?
Given back: 0.475

###

system: Mus musculus; experiment: Antipsychotic-like activity in sc dosed NMRI mouse assessed as reduction in MK801-induced locomotor activity dosed 15 to 30 mins before administration of MK801 measured for 60 mins; type: functional; conditions: read-out: MED
Reported minimal effective dose by item:
# number then unit; no other words

For orientation, consider the following solved cases.
Asked: Query the reported minimal effective dose for Mus musculus; item: Cc1cccc(N2CCN(CCCCNC(=O)c3ccc4ccccc4n3)CC2)c1
Given back: 10 mg/kg

Asked: Test system Mus musculus; read-out minimal effective dose; what value for COc1cccc(N2CCN(CCCCNC(=O)c3ccccc3)CC2)n1 ?
Given back: 3 mg/kg

Asked: Given the entry Cc1cccc(N2CCN(CCCCNC(=O)c3cc4ccccc4cn3)CC2)c1 , what minimal effective dose was observed with Mus musculus?
Given back: 3 mg/kg

Asked: Under Mus musculus: minimal effective dose value of Cc1cccc(N2CCN(CCCCNC(=O)c3cc4ccccc4o3)CC2)c1C ?
Given back: 30 mg/kg

Asked: Write down the reported minimal effective dose of O=C(NCCCCN1CCN(c2ccccc2)CC1)c1cc2ccccc2cn1 , test system: Mus musculus.
Given back: 3 mg/kg

Asked: Find the measured minimal effective dose: item O=C(NCCCCN1CCN(c2ccccc2)CC1)c1cc2ccccc2o1 , target or system Mus musculus.
Given back: 3 mg/kg

---
Asked: # value lookup — system Mus musculus, readout minimal effective dose, item COc1cccc(N2CCN(CCCCNC(=O)c3cc4ccccc4cn3)CC2)c1
Given back: 10 mg/kg

###

Item-by-item account of log10(Ki)
target: 5-hydroxytryptamine receptor 2C (Homo sapiens)
Sequence (P28335 whole entry): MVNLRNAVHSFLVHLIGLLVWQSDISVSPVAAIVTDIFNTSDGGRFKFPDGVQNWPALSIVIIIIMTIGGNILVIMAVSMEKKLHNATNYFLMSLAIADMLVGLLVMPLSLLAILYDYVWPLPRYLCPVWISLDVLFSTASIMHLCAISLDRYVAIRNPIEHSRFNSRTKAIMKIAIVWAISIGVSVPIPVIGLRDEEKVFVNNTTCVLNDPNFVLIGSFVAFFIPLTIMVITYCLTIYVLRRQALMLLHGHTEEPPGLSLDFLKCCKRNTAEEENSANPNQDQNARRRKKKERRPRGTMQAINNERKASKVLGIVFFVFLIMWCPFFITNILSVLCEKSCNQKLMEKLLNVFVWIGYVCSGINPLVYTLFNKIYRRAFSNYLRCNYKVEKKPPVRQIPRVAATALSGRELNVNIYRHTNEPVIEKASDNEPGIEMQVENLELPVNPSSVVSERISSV
Please note: log10 values; quantity Ki; unit nM.

Consider the reported log10(Ki) for these molecules:
Asked: Return log10(Ki) measured with 5-hydroxytryptamine receptor 2C (Homo sapiens) given this molecule: Cc1cccc(N2CCN(CCCCNC(=O)c3cc4ccccc4cn3)CC2)n1
Given back: 1.76

Asked: Request - read-out log10(Ki) | tested on 5-hydroxytryptamine receptor 2C (Homo sapiens) | molecule O=C(NCCCCN1CCN(c2ccc(F)cc2)CC1)c1cc2ccccc2cn1
Given back: 2.48

Asked: 5-hydroxytryptamine receptor 2C (Homo sapiens) / log10(Ki) / O=C(NCCCCN1CCN(c2cccc(C(F)(F)F)c2)CC1)c1cc2ccccc2[nH]1 : value?
Given back: 1.34

Asked: Request body: readout log10(Ki), system 5-hydroxytryptamine receptor 2C (Homo sapiens), query COc1cccc(N2CCN(CCCCNC(=O)c3ccccn3)CC2)n1 . Return the value.
Given back: 1.63

Asked: Tell me reported log10(Ki) for O=C(NCCCCN1CCN(c2cccc(F)c2)CC1)c1cc2ccccc2cn1 , tested with 5-hydroxytryptamine receptor 2C (Homo sapiens).
Given back: 2.36

Asked: What log10(Ki) appears in the records for this molecule with 5-hydroxytryptamine receptor 2C (Homo sapiens)? Cc1cccc(N2CCN(CCCCNC(=O)c3ccc4ccccc4n3)CC2)c1
Given back: 1.87

Would you kindly look at the next entry?
Asked: Report log10(Ki) for O=C(NCCCCN1CCN(c2ccccn2)CC1)c1cc2ccccc2cn1 tested on 5-hydroxytryptamine receptor 2C (Homo sapiens).
Given back: 3.13

###

Reported Ki by item:
target: D(2) dopamine receptor (Homo sapiens)
Sequence (P14416 whole entry): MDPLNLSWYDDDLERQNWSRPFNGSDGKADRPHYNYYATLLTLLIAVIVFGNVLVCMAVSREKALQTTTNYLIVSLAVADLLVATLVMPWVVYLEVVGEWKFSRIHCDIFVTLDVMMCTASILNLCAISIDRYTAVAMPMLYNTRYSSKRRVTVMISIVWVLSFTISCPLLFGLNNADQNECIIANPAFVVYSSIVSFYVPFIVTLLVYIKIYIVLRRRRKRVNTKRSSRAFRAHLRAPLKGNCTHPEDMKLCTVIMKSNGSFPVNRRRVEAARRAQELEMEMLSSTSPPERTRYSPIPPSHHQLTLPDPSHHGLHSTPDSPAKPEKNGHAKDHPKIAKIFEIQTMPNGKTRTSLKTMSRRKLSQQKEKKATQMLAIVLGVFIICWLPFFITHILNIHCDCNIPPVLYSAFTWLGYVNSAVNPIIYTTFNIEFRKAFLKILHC

Asked: # value lookup — system D(2) dopamine receptor (Homo sapiens), readout Ki, item Cc1cccc(N2CCN(CCCCNC(=O)c3ccccn3)CC2)n1
Given back: > 1000 nM

Asked: Give D(2) dopamine receptor (Homo sapiens) Ki for COc1cccc(N2CCN(CCCCNC(=O)c3ccccc3)CC2)n1
Given back: > 1000 nM

Asked: For D(2) dopamine receptor (Homo sapiens), provide Ki of O=C(NCCCCN1CCN(c2cccc3ccccc23)CC1)c1ccccc1 please.
Given back: 58 nM

Asked: Item: O=C(NCCCCN1CCN(c2cccc(F)c2)CC1)c1cc2ccccc2cn1 Test system: D(2) dopamine receptor (Homo sapiens) Read-out: Ki Value: ?
Given back: 160 nM

###

target: D(3) dopamine receptor (Homo sapiens, UniProt P35462)
Sequence (P35462 whole entry): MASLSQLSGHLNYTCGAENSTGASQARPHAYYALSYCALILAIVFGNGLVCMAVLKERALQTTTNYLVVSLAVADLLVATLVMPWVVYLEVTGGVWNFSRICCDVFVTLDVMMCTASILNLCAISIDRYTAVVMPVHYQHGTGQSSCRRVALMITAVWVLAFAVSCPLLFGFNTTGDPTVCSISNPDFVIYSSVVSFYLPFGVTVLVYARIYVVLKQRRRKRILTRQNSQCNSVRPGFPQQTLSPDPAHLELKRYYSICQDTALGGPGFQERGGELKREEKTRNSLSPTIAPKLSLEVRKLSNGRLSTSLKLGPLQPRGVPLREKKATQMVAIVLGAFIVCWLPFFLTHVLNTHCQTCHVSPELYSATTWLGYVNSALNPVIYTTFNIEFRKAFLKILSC
readout.kind: pKi
Would you please state pKi, meaning minus log10 of the concentration in mol/L, as a bare number?

Please review the entries below; each comes with its answer.
Asked: Which pKi is reported with D(3) dopamine receptor (Homo sapiens, UniProt P35462) for this entry: O=C(NCCCCN1CCN(c2ccccc2)CC1)c1cc2ccccc2o1 ?
Given back: 8.40

Asked: Can you look up pKi on D(3) dopamine receptor (Homo sapiens, UniProt P35462) for O=C(NCCCCN1CCN(c2ccccn2)CC1)c1ccc2ccccc2n1 ?
Given back: 6.73

Asked: // lookup pKi | system=D(3) dopamine receptor (Homo sapiens, UniProt P35462) | key= Cc1cccc(N2CCN(CCCCNC(=O)c3ccc4ccccc4n3)CC2)c1
Given back: 7.28

Asked: Query the reported pKi for D(3) dopamine receptor (Homo sapiens, UniProt P35462); item: Cc1cccc(N2CCN(CCCCNC(=O)c3cc4ccccc4o3)CC2)c1C
Given back: 9.40

Asked: Value wanted: pKi (D(3) dopamine receptor (Homo sapiens, UniProt P35462)) of entry COc1cccc(N2CCN(CCCCNC(=O)c3cc4ccccc4n3C)CC2)c1
Given back: 8.77

Proceed to the following item.
Asked: Find the measured pKi: item COc1cccc(N2CCN(CCCCNC(=O)c3cccc(C)n3)CC2)c1 , target or system D(3) dopamine receptor (Homo sapiens, UniProt P35462).
Given back: 7.57

###

For UniProtKB P14416, measured Ki is reported for the entries below.

Example entries and their recorded answers appear below.
Asked: Which measured Ki belongs to COc1cccc(N2CCN(CCCCNC(=O)c3cc4ccccc4n3C)CC2)c1 , tested on UniProtKB P14416?
Given back: 219 nM

Asked: Under UniProtKB P14416: Ki value of O=C(NCCCCN1CCN(c2ccccn2)CC1)c1ccc2ccccc2n1 ?
Given back: > 1000 nM

Asked: Any idea what Ki came out for O=C(NCCCCN1CCN(c2ccccc2)CC1)c1ccc2ncccc2c1 on UniProtKB P14416?
Given back: > 1000 nM

Asked: Look up Ki with UniProtKB P14416 for this compound: COc1cccc(N2CCN(CCCCNC(=O)c3cc4ccccc4o3)CC2)c1
Given back: > 1000 nM

Asked: API: value(readout=Ki, system=UniProtKB P14416) for record O=C(NCCCCN1CCN(c2ccccc2)CC1)c1cc2ccccc2o1
Given back: > 1000 nM

New cases:
Asked: Query for UniProtKB P14416: what Ki does the record show for O=C(NCCCCN1CCN(c2ncccn2)CC1)c1cc2ccccc2cn1 ?
Given back: > 1000 nM
